- Test system: MOLT-4 leukemia
- protocol description: NCI-60 one-dose screen, 48 h
- condition label: 10 µM unless noted
About 83,000 compounds went through this panel and 20% of them were active in at least one assay; those are over-represented in the sample as a whole. Activity calls are given as the source filed them. The calls were made as follows: active = growth percent below 10; inactive = the rest.
Outcome codes: yes (1) for active, no (0) for inactive

compound	qualitative label
Nc1c(-c2nc3ccc(Br)cc3c(=O)[nH]2)nnn1-c1ccccc1	no (0)
COc1ccc(-c2cc(-c3cc(OC)ccc3OC)[nH]c(=O)c2C#N)cc1	no (0)
COc1ccc(OC)c(Nc2nc3nonc3nc2Nc2cccc(Br)c2)c1	yes (1)
COc1ccc(N(C)c2nc(Cl)nc3cnn(C)c23)cc1	no (0)
COc1cc2c(cc1OC)-c1ccc3cc4c(cc3c1N(CCN1CCCC1)C2)OCO4	yes (1)
Nc1c(C(=O)c2ccc(Cl)s2)sc2nc3c(cc12)CCCC3	no (0)
O=C1Nc2ccccc2/C1=N/N=C/c1ccsc1	no (0)
COc1ccc(C2CC(c3ccccc3)=NN2c2nc(C)c(C(C)=O)s2)cc1 (stereo not drawn)	no (0)
CCNCCNc1cc(C2CCCC2)c(C#N)c2nc3ccccc3n12	yes (1)
O=C1Nc2ccccc2/C1=N/N=C/c1ccc(OC2OC(CO)C(O)C(O)C2O)cc1 (stereo not drawn)	no (0)
CC(C)CCC[C@@H](C)[C@H]1CCC2C3=CCC4C(=O)C=CC(=O)C4C3CC[C@@]21C (stereo partly drawn)	no (0)
Cc1[nH]c(-c2nc3ccccc3[nH]2)c(C)c1C(=O)NNc1ccc(Cl)cc1	no (0)
N#Cc1c(NC(=O)c2ccc(Br)cc2)sc2c1CCCC2	no (0)
COc1cc(C2CC(c3ccc(Nc4nc(Nc5ccc(F)cc5)nc(Nc5ccc(Cl)cc5)n4)cc3)=NN2C(C)=O)cc(OC)c1OC (stereo not drawn)	yes (1)
NS(=O)(=O)Oc1ccc(NC(=O)C23CC4CC(CC(C4)C2)C3)cc1Cl	no (0)
CNC=O	no (0)
Clc1ccc(-c2cn(-c3ccccc3)c(-c3ccccc3)n2)cc1	yes (1)
COc1ccc(/C=N/NC(=O)Cn2c(-c3ccc(S(C)(=O)=O)cc3)nc3cc(Cl)ccc32)cc1	no (0)
CNC(=O)c1cc(Oc2ccc3nc(Nc4cc(Cl)cc(Cl)c4)ccc3c2)ccn1	no (0)
CCN(CC)c1ccc(Nc2ccc(CC(=O)c3ccccc3)cc2)cc1	no (0)
CC(=O)OCCc1ccccc1	no (0)
COc1ccc(-c2c(N)n[nH]c2-c2ccccc2O)cc1OC	no (0)
c1ccc2[nH]c(SSc3nc4ncncc4[nH]3)nc2c1	no (0)
O=c1ccn(C2OC(F)(CO)C(O)C2F)c(=O)[nH]1 (stereo not drawn)	no (0)
Cc1[nH]c(-c2nc3ccccc3[nH]2)c(C)c1C(=O)N1CCOCC1	no (0)
COc1ccc(C2=NC(=O)NC2c2ccc(OC)cc2)cc1 (stereo not drawn)	no (0)
CN(C)c1ccc(C#Cc2c(F)cccc2Cl)cc1	no (0)
Cn1ccc(Cc2cnc(N)s2)n1	no (0)
COc1cc2c(c(OC)c1OC)C(=O)/C(=C/c1cc(C)c(O)c(C)c1)S2	no (0)
O=C1CSC(c2ccccc2)N1c1ccccc1 (stereo not drawn)	no (0)
Cc1ccc(/C=C(\C#N)n2nnc3cc(Cl)c(Cl)cc32)cc1	yes (1)
Oc1ccccc1-c1nc2ccccn2c1NCCN1CCOCC1	no (0)
Cc1cc(Cc2cc(C)cc(C(C)(C)C)c2O)c(O)c(C(C)(C)C)c1	no (0)
Cc1cc(NS(=O)(=O)c2ccccc2)c(OS(=O)(=O)c2ccccc2)cc1C	no (0)
COc1ccc(Cn2cnc3cc(C(=O)Nc4cccc5ccccc45)ccc32)c(OC)c1	yes (1)
CCN(CC)CC(O)CNc1c2ccc(Cl)cc2nc2ccc(OC)cc12 (stereo not drawn)	yes (1)
Cc1c2c(cn1Cc1ccccc1)CCc1cn(C)nc1-2	no (0)
COc1cc(-c2cc(-c3ccc(Nc4nc(Nc5ccccc5)nc(Nc5ccc(Cl)cc5)n4)cc3)nc(N)n2)cc(OC)c1OC	no (0)
NC(=S)N/N=C/C(=O)O	no (0)
COc1ccc(OC)c(/C=C2\COc3ccc(O)cc3C2=O)c1	no (0)
COc1ccc(-c2cc(-c3ccc(Nc4nc(Nc5ccccc5)nc(Nc5ccc(Cl)cc5)n4)cc3)nc(N)c2C#N)cc1	yes (1)
COC1(CC[C@@H](C)COC2OC(CO)C(O)C(O)C2O)O[C@H]2C[C@H]3[C@@H]4CC=C5C[C@@H](OC6OC(CO)C(OC7OC(C)C(O)C(O)C7O)C(O)C6OC6OC(C)C(O)C(O)C6O)CC[C@]5(C)[C@H]4CC[C@]3(C)[C@H]2[C@@H]1C (stereo partly drawn)	yes (1)
COc1ccc(C(=O)/C=C/C23c4ccccc4C(c4ccccc42)C2C(=O)NC(=O)C23)cc1 (stereo not drawn)	no (0)

* * *

Examples of molecules with documented growth follow.
- Test system: ACHN renal
- protocol description: NCI-60 one-dose screen, 48 h (100 = growth as untreated, 0 = no growth, -100 = all killed)
- condition label: 10 µM unless noted
- Experimental: Growth inhibition of the ACHN human tumor cell line is measured as a screen for anti-cancer activity. Cells are grown in 96 well plates and exposed to the test compound for 48 hours. Compounds are tested at a single concentration, which is 10^-5 M for most compounds. The reported endpoint is percent growth (GI% or GIPRCNT), where numbers from 0 - 100% represent growth inhibition, and numbers from -100% - 0 represent cell death. For example, a value of 40 represents 60% growth inhibition. […]
This is part of a sample that, as a whole, favours compounds with a hit. Of some 83,000 tested, about 20% had one in any assay.
endpoint name: growth (%)

>>> print(df.to_string())
                               given_smiles  assayed_system  recorded_number
0                                     CNC=O      ACHN renal              110
1   NC(=O)c1c(NC(=O)c2ccccn2)sc2c1CCC(=O)C2      ACHN renal             5.89
2  C[C@@H]1C(=O)N(C[C@@H](Cc2ccccc2)NC(=O)OCc2ccccc2)[C@]1(Cc1ccccc1)C(=O)OCc1ccccc1      ACHN renal             22.3
3  C=C1C(=O)O[C@H]2[C@H]1CC/C(COC(=O)/C=C\C(=O)NCc1ccc(Cn3c(=O)sn(-c4ccc(OC)cc4)c3=O)cc1)=C\CC[C@@]1(C)O[C@@H]21      ACHN renal            -98.8
4  O=[N+]([O-])c1ccc2[nH]cc(-c3c4ccsc4cc4[nH]c5ccc([N+](=O)[O-])cc5c34)c2c1      ACHN renal             24.5
5             Nc1c(C(=O)c2ccccc2)nnc2ncnn12      ACHN renal              122
6                       CC(C)(O)c1cccc(F)c1      ACHN renal             99.1
7  COc1ccc(-c2nc3ncccn3c2/C=C/C(=O)c2cc(OC)c(OC)c(OC)c2)cc1      ACHN renal             20.4
8     COc1cccc(/C=C2\COc3ccc(O)cc3C2=O)c1OC      ACHN renal             54.6
9   COc1ccc(OC)c(/C=C2\COc3ccc(O)cc3C2=O)c1      ACHN renal             78.9

* * *

- System: HCT-116 colon
- protocol description: NCI-60 one-dose screen, 48 h (100 = growth as untreated, 0 = no growth, -100 = all killed)
- condition label: 10 µM unless noted
The panel holds about 83,000 compounds, 20% with a hit somewhere; the sample as a whole holds those more often.
endpoint name: growth (%)

>>> print(df.to_string())
                                   compound  endpoint_name  uom  recorded_number
0         NC(N)=N/N=C(/c1ccccc1)c1ccc(N)cc1         growth    %              115
1  Cc1ccc(Nc2ccc(Nc3ccc(C)cc3S(=O)(=O)O)c3c2C(=O)c2ccccc2C3=O)c(S(=O)(=O)O)c1         growth    %               87
2  CN1CCN(C(=O)[C@@]2(C)CC[C@]3(C)CC[C@]4(C)C(=CC[C@@H]5[C@@]6(C)C/C(=C/c7ccncc7)C(=O)C(C)(C)[C@@H]6CC[C@]54C)[C@@H]3C2)CC1         growth    %               12
3  CCCCOC(=O)c1ccc(NC(=O)C(C)N2CCOCC2)cc1 (stereo not given)         growth    %             77.6
4  O=C1C2=C(CCN(Cc3ccccc3)C2)N2CCN=C2N1Cc1ccc(C(F)(F)F)cc1         growth    %               23
